Molecular target: UniProt:P45983
Sequence (P45983 whole entry): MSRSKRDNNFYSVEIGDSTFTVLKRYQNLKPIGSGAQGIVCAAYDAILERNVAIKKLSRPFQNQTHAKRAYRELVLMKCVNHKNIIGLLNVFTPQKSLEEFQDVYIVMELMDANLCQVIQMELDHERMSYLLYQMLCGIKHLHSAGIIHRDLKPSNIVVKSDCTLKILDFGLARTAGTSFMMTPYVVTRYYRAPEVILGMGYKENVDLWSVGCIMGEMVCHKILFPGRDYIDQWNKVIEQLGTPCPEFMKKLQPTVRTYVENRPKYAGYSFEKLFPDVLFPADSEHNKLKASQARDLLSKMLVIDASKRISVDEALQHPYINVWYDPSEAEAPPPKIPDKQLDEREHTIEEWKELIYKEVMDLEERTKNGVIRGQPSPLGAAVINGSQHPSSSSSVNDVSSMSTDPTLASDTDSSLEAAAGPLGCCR
Assay: IC50 assay for JNK kinase inhibition, JNK1
Type: biochemical
Readout Name: IC50 (nM)

CN(C)C/C=C/C(=O)Nc1ccc(C(=O)N2CC[C@H](Nc3ncc(Cl)c(-c4c(-c5ccccc5)nn5ccccc45)n3)C2)cc1	3360

(I) CN(C)C/C=C/C(=O)Nc1ccc(C(=O)N2CC[C@H](Nc3nccc(-c4c(-c5ccc(F)cc5)nn5ccccc45)n3)C2)cc1
(II) Cc1ccc2c(-c3ccnc(N[C@H]4CCN(C(=O)c5ccc(NC(=O)/C=C/CN(C)C)cc5)C4)n3)c(-c3ccccc3)nn2c1
(III) Cc1cccn2nc(-c3ccccc3)c(-c3ccnc(N[C@H]4CCN(C(=O)c5ccc(NC(=O)/C=C/CN(C)C)cc5)C4)n3)c12
QUERY: rank_up(items): orders items by reported IC50 in ascending numerical order. To answer, write out the labels according to the requested order.
RESULT: II, I, III

----------
Target: JNK3 (Homo sapiens, UniProt P53779)
Sequence (P53779 whole entry): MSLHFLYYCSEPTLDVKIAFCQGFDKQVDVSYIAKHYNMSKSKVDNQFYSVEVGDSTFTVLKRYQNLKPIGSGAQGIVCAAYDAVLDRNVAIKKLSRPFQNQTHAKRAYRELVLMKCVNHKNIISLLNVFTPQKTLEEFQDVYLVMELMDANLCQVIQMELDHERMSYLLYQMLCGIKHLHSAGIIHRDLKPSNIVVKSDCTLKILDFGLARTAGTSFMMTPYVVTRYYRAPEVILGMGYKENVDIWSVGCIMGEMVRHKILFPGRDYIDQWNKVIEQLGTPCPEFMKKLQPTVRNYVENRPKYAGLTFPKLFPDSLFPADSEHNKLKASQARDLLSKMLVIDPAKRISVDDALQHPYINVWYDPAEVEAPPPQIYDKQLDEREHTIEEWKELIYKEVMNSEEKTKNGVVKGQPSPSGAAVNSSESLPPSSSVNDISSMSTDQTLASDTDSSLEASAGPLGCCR
Assay: IC50 assay for JNK kinase inhibition, JNK3
Type: biochemical
Readout Name: IC50 (nM)

Some solved cases for reference:
CN(C)C/C=C/C(=O)Nc1ccc(C(=O)N2CCCC[C@H](Nc3nccc(-c4c(-c5ccccc5)nn5ccccc45)n3)C2)cc1 [I-13]	20
CN(C)C/C=C/C(=O)Nc1ccc(C(=O)N2CCC[C@H](Nc3nccc(-c4c(-c5ccccc5)nn5ccccc45)n3)C2)cc1 [I-1]	2.36
CN(C)C/C=C/C(=O)Nc1ccc(C(=O)N2CC[C@H](Nc3nccc(-c4c(-c5cccc(Cl)c5)nn5ccccc45)n3)C2)cc1 [I-25]	18.3
CN(C)CCCC(=O)Nc1ccc(C(=O)N2CC[C@H](Nc3nccc(-c4c(-c5ccccc5)nn5ccccc45)n3)C2)cc1 [I-12]	110
CN(C)C/C=C/C(=O)Nc1ccc2c(N3CC[C@H](Nc4nccc(-c5c(-c6ccccc6)nn6ccccc56)n4)C3)nccc2c1 [I-20]	12
CN(C)CCCC(=O)Nc1ccc(C(=O)N2CCC[C@@H](Nc3nccc(-c4c(-c5ccccc5)nn5ccccc45)n3)C2)cc1 [I-6]	1090
CN(C)C/C=C/C(=O)Nc1ccc(C(=O)N2CCC[C@@H](Nc3nccc(-c4c(-c5ccccc5)nn5ccccc45)n3)C2)cc1 [I-5]	15
Nc1ccc(C(=O)N2CCC[C@H](Nc3nccc(-c4c(-c5ccccc5)nn5ccccc45)n3)C2)cc1 [I-4]	22.5

(I) CN(C)CCCC(=O)Nc1ccc(C(=O)N2CC[C@@H](Nc3nccc(-c4c(-c5ccccc5)nn5ccccc45)n3)C2)cc1 [I-8]
(II) CN(C)C/C=C/C(=O)Nc1ccc(C(=O)N2CC[C@H](Nc3nccc(-c4c(-c5ccc(F)cc5)nn5ccccc45)n3)C2)cc1 [I-22]
(III) C[C@H]1CN(C(=O)c2ccc(NC(=O)CCCN(C)C)cc2)C[C@H]1Nc1nccc(-c2c(-c3ccccc3)nn3ccccc23)n1 [I-27]
(IV) CN(C)C/C=C/C(=O)Nc1ccc(C(=O)N2CCCC[C@@H](Nc3nccc(-c4c(-c5ccccc5)nn5ccccc45)n3)C2)cc1 [I-9]
(V) Cc1ccc2c(-c3ccnc(N[C@H]4CCN(C(=O)c5ccc(NC(=O)/C=C/CN(C)C)cc5)C4)n3)c(-c3ccccc3)nn2c1 [I-24]
QUERY: Rank the 5 molecules: largest IC50 first, smallest last. I would appreciate it if you listed the labels in the requested order.
RESULT: III, IV, I, V, II
(III: 790 nM, IV: 96.1 nM, I: 21.4 nM, V: 5.53 nM, II: 3.87 nM)

----------
Biological target: UniProtKB P53779
Assay: IC50 assay for JNK kinase inhibition, JNK3
Type: biochemical
Readout Name: IC50 (nM)

C=CC(=O)Nc1ccc(C(=O)N2CCC[C@H](Nc3nccc(-c4c(-c5ccccc5)nn5ccccc45)n3)C2)cc1	16.2

(1) Cc1cccn2nc(-c3ccccc3)c(-c3ccnc(N[C@H]4CCN(C(=O)c5ccc(NC(=O)/C=C/CN(C)C)cc5)C4)n3)c12
(2) CN(C)C/C=C/C(=O)Nc1ccc(NC(=O)N2CC[C@H](Nc3nccc(-c4c(-c5ccccc5)nn5ccccc45)n3)C2)cc1
(3) CN(C)C/C=C/C(=O)Nc1ccc(C(=O)N2CC[C@H](Nc3nccc(-c4c(-c5ccc(Cl)cc5)nn5ccccc45)n3)C2)cc1
QUERY: List by increasing IC50. Answer by naming the labels in the order asked.
RESULT: 3, 2, 1
(3: 10.3 nM, 2: 15.7 nM, 1: 396 nM)

----------
Target: UniProtKB P53779
Assay: IC50 assay for JNK kinase inhibition, JNK3
Format: biochemical
Readout Name: IC50 (nM)

CN(C)CCCC(=O)Nc1ccc(C(=O)N2CCCC[C@H](Nc3nccc(-c4c(-c5ccccc5)nn5ccccc45)n3)C2)cc1 [I-14]	252

(1) CN(C)C/C=C/C(=O)Nc1ccc(C(=O)N2CC[C@@H](Nc3nccc(-c4c(-c5ccccc5)nn5ccccc45)n3)C2)cc1 [I-7]
(2) Cc1ccc2c(-c3ccnc(N[C@@H]4CN(C(=O)c5ccc(NC(=O)/C=C/CN(C)C)cc5)C[C@@H]4C)n3)c(-c3ccccc3)nn2c1 [I-31]
(3) CN(C)C/C=C/C(=O)Nc1ccc(C(=O)NC2CCCC(Nc3nccc(-c4c(-c5ccccc5)nn5ccccc45)n3)C2)cc1 (stereo not shown) [I-15]
QUERY: # desc sort on IC50 across 3 compounds Your task in answering is to list the labels in the requested order.
RESULT: 2, 3, 1
(2: 274 nM, 3: 40.3 nM, 1: 25 nM)
